Measured values drawn from paper PMC3711074 for this set.

- system-name: SUMO-activating enzyme 1/2 (SAE 1/2, SUMO E1) (Homo sapiens)
- Sequence (Q9UBT2 1-640): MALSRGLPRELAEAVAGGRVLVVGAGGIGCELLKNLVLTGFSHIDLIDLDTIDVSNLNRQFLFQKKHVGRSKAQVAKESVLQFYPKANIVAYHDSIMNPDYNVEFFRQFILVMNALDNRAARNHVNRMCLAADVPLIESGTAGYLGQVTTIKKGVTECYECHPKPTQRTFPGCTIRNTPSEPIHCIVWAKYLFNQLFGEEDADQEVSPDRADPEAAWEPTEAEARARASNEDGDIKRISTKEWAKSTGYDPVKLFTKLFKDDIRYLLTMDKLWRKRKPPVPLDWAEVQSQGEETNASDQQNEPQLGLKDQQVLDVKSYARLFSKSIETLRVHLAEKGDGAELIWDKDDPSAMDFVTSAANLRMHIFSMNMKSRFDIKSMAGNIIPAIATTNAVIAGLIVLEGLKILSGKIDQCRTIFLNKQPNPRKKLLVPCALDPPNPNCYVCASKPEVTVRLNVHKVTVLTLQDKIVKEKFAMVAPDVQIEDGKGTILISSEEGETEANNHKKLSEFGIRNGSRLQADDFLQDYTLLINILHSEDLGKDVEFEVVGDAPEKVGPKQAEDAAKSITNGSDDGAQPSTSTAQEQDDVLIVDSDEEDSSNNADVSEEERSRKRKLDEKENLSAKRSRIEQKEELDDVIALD
- Sequence (Q9UBE0 1-346 partner): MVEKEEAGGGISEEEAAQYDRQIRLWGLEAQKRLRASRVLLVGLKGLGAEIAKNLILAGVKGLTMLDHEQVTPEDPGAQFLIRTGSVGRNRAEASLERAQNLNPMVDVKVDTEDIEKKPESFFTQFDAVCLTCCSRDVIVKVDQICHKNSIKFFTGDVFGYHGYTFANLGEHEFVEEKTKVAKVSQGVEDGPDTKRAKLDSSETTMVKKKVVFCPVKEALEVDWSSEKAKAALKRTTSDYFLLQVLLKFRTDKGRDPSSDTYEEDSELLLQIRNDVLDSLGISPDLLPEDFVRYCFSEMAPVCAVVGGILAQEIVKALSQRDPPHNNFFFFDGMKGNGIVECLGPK
- method: E1-SUMO-1 thioester formation gel assay with fluorescent SUMO-1
reported-property: pIC50
Units for pIC50: none; it is -log10 of a concentration expressed in mol/L.

INPUT: Need pIC50, item CCCCCC/C=C\CCCCCCCc1cccc(O)c1C(=O)O [ginkgolic acid]
OUTPUT: 5.04
